test: Single ascending dose study, pharmacokinetics; assay type: in vivo; settings: both sexes, plasma; human, single oral dose 10 mg; median (range)
reported.property: Tmax (h)
Supply the numeric figure in h, leaving out any unit text.

Look up Tmax for this molecule: O=C(c1csc(-c2cn[nH]c2)c1)N1C2CCC1CC(O)(c1ncccn1)C2 (stereo not shown)
3.5

====

Assay: Multiple ascending dose study, pharmacokinetics
Format: in vivo
Conditions: male, human, plasma, oral, 35 mg, 35 mg b.i.d, Day 1, median (range), read-out: Tmax
Method: A double‐blind, randomized, placebo‐controlled multiple ascending dose study was carried out at Linear Clinical Research Ltd, Nedlands, Australia. Each cohort consisted of eight healthy male subjects. Each subject received UE2343 or placebo twice daily (b.i.d ) (12 hourly) in the fed state for 9 days (Day 1 to Day 9) and once on the morning of Day 10 (19 doses in total). […] Safety, pharmacokinetic and pharmacodynamic assessments were made at pre‐determined time‐points during each part of the study. […]
reported.property: Tmax (h)
Supply the numeric figure in h, leaving out any unit text.

Look up Tmax for this molecule: O=C(c1csc(-c2cn[nH]c2)c1)N1C2CCC1CC(O)(c1ncccn1)C2 (stereo not shown)
4

====

experiment: Single ascending dose study, pharmacokinetics; format: in vivo; settings: both sexes, plasma; human, single oral dose 10 mg; mean (CV%)
reported.property: half-life (h)
Supply the numeric figure in h, leaving out any unit text.

Look up half-life for this compound: O=C(c1csc(-c2cn[nH]c2)c1)N1C2CCC1CC(O)(c1ncccn1)C2 (stereo not shown) [compound 4]
18.7

====

assay: Tissue exposure measurements in rats (plasma and brain); type: in vivo; conditions: male, Sprague Dawley, brain and plasma; rat, 10 mg·kg^−1 oral gavage; read-out: Brain : plasma ratio
reported.property: Kp
Write the value as a bare number.

Look up Kp for this compound: O=C(c1csc(-c2cn[nH]c2)c1)N1C2CCC1CC(O)(c1ncccn1)C2 (stereo not shown)
0.11

====

experiment: CSF study, plasma and CSF pharmacokinetics; format: in vivo; conditions: male, human, CSF (relative to total plasma), oral, 35 mg, 35 mg b.i.d, Day 4, read-out: CSF concentration as % of simultaneous total plasma levels, range
reported.property: Kp at 5 h

Look up Kp at 5 h for this compound: O=C(c1csc(-c2cn[nH]c2)c1)N1C2CCC1CC(O)(c1ncccn1)C2 (stereo not shown) [compound 4]
0.0746 to 0.119

====

test: CSF study, plasma and CSF pharmacokinetics; format: in vivo; conditions: male, human, plasma, oral, 35 mg, 35 mg b.i.d, Day 1, mean (CV%)
reported.property: half-life (h)
Supply the numeric figure in h, leaving out any unit text.

Look up half-life for this molecule: O=C(c1csc(-c2cn[nH]c2)c1)N1C2CCC1CC(O)(c1ncccn1)C2 (stereo not shown)
6.24

====

experiment: Aqueous solubility at pH 7.4; type: physicochemical; details: aqueous buffer, thermodynamic from solid, pH 7.4, room temperature, mean ± SD [n]
reported.property: solubility (µg/mL)
Supply the numeric figure in µg/mL, leaving out any unit text.

Look up solubility for this compound: O=C(c1csc(-c2cn[nH]c2)c1)N1C2CCC1CC(O)(c1ccccc1)C2 (stereo not shown) [compound 1]
6

====

experiment: Multiple ascending dose study, pharmacokinetics; format: in vivo; details: male, human, plasma, oral, 20 mg, 20 mg b.i.d, Day 10, mean (CV%), read-out: t 1/2 (converted)
reported.property: half-life (h)
Supply the numeric figure in h, leaving out any unit text.

Look up half-life for this compound: O=C(c1csc(-c2cn[nH]c2)c1)N1C2CCC1CC(O)(c1ncccn1)C2 (stereo not shown)
11.2

====

Target: CYP1A2 (Homo sapiens)
Construct: tissue Cyprotex Discovery Limited
Sequence (P05177 whole entry): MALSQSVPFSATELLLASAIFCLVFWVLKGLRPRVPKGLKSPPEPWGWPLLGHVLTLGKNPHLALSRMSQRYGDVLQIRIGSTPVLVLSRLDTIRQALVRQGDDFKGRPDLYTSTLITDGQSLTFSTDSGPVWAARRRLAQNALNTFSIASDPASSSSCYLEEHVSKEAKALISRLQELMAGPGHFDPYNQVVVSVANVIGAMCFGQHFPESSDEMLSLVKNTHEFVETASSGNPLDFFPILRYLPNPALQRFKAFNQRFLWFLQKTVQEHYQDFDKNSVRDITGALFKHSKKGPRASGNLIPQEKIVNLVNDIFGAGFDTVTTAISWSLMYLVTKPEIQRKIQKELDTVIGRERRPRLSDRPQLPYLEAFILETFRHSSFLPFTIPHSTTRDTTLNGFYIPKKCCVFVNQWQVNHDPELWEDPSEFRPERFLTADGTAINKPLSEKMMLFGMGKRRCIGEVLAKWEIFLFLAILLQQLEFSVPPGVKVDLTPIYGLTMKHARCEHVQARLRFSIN
Assay: Cytochrome P450 inhibition, CYP1A2
Conditions: human liver microsomes; read-out: CYP450 isoform 1A2 IC50
Protocol: Testing was performed by Cyprotex Discovery Limited, Cheshire, UK. Six test compound concentrations (0.4, 1, 4, 10, 40 and 100 μM; final DMSO concentration 0.25%, final microsome concentration 0.25 mg·mL^−1) were either pre‐incubated for 30 min in the absence and presence of NADPH or underwent a 0 min pre‐incubation with human liver microsomes. […]
pIC50: −log10 of the molar value.
reported.property: pIC50

Look up pIC50 for this compound: O=C(c1csc(-c2cn[nH]c2)c1)N1C2CCC1CC(O)(c1ncccn1)C2 (stereo not shown)
< 4.30

====

assay: Tissue exposure measurements in rats (plasma and brain); type: in vivo; settings: male, Sprague Dawley, rat, brain and plasma, po, 10 mg/kg, 10 mg·kg^−1 oral gavage, read-out: Brain : plasma ratio
A collection of compounds and their measured Kp
Write the value as a bare number.

Recorded results for 2 compounds are shown here.
[
  {
    "compound": "N#CC1(c2ncccn2)CC2CCC(C1)N2C(=O)c1csc(-c2cn[nH]c2)c1 (stereo not drawn) [compound 9]",
    "Kp": 0.07
  },
  {
    "compound": "O=C(c1csc(-c2cn[nH]c2)c1)N1C2CCC1CC(O)(c1cnccn1)C2 (stereo not drawn) [compound 5]",
    "Kp": 0.03
  }
]

Note: attention shifts to another entry.
Look up Kp for this compound: O=C(c1csc(-c2cn[nH]c2)c1)N1C2CCC1CC(F)(c1ccccn1)C2 (stereo not drawn) [compound 7]
0.24

====

assay: Multiple ascending dose study, pharmacokinetics; format: in vivo; details: male, human, plasma, oral, 20 mg, 20 mg b.i.d, Day 1, mean (CV%)
reported.property: Cmax (ng/mL)
Supply the numeric figure in ng/mL, leaving out any unit text.

Look up Cmax for this compound: O=C(c1csc(-c2cn[nH]c2)c1)N1C2CCC1CC(O)(c1ncccn1)C2 (stereo not shown) [compound 4]
89.2

====

experiment: CSF study, plasma and CSF pharmacokinetics; format: in vivo; conditions: male, human, CSF (relative to total plasma), oral, 35 mg, 35 mg b.i.d, at plasma Cmax on Day 4, read-out: mean CSF levels as % of the total plasma levels
reported.property: Kp at 5 h

Look up Kp at 5 h for this compound: O=C(c1csc(-c2cn[nH]c2)c1)N1C2CCC1CC(O)(c1ncccn1)C2 (stereo not shown) [compound 4]
0.1

====

Experiment: Single ascending dose study, pharmacokinetics
Assay type: in vivo
Settings: both sexes, plasma; human, single oral dose 18 mg; mean (CV%)
Method: A double‐blind, randomized, placebo‐controlled single ascending dose study was carried out at Simbec Research Ltd, Merthyr Tydfil, UK. Each cohort consisted of six healthy male subjects and two females of non‐child bearing potential. Two male ‘dose leader’ subjects (1 active : 1 placebo) were dosed first in each cohort. […] Safety, pharmacokinetic and pharmacodynamic assessments were made at pre‐determined time‐points during each part of the study. […]
reported.property: Cmax (ng/mL)
Supply the numeric figure in ng/mL, leaving out any unit text.

Look up Cmax for this molecule: O=C(c1csc(-c2cn[nH]c2)c1)N1C2CCC1CC(O)(c1ncccn1)C2 (stereo not shown) [compound 4]
136

====

test: Pharmacokinetics in dog (i.v. and p.o.); format: in vivo; conditions: Beagle, plasma, oral, 5 mg·kg^−1
reported.property: Tmax (h)
Supply the numeric figure in h, leaving out any unit text.

Look up Tmax for this compound: O=C(c1csc(-c2cn[nH]c2)c1)N1C2CCC1CC(O)(c1ncccn1)C2 (stereo not shown)
1

====

test: Multiple ascending dose study, pharmacokinetics; assay type: in vivo; details: male, human, plasma, oral, 35 mg, 35 mg b.i.d, Day 10, mean (CV%)
reported.property: Cmax (ng/mL)
Supply the numeric figure in ng/mL, leaving out any unit text.

Look up Cmax for this molecule: O=C(c1csc(-c2cn[nH]c2)c1)N1C2CCC1CC(O)(c1ncccn1)C2 (stereo not shown) [compound 4]
892

====

Assay: Multiple ascending dose study, pharmacokinetics
Type: in vivo
Settings: male, human, plasma, oral, 10 mg, 10 mg b.i.d, Day 10, median (range), read-out: Tmax
Method: A double‐blind, randomized, placebo‐controlled multiple ascending dose study was carried out at Linear Clinical Research Ltd, Nedlands, Australia. Each cohort consisted of eight healthy male subjects. Each subject received UE2343 or placebo twice daily (b.i.d ) (12 hourly) in the fed state for 9 days (Day 1 to Day 9) and once on the morning of Day 10 (19 doses in total). […] Safety, pharmacokinetic and pharmacodynamic assessments were made at pre‐determined time‐points during each part of the study. […]
reported.property: Tmax
Give the figure together with its unit, number first.

Look up Tmax for this compound: O=C(c1csc(-c2cn[nH]c2)c1)N1C2CCC1CC(O)(c1ncccn1)C2 (stereo not shown)
4 h

====

assay: in vivo; conditions: male, Sprague Dawley, rat, iv, 1 mg/kg
reported.property: clearance

Look up clearance for this compound: O=C(c1csc(-c2cn[nH]c2)c1)N1C2CCC1CC(O)(c1ccccc1)C2 (stereo not shown)
34 mL/min/kg

====

assay: Tissue exposure measurements in rats (plasma and brain); assay type: in vivo; conditions: male, Sprague Dawley, rat, plasma, po, 10 mg/kg, 10 mg·kg^−1 oral gavage, mean ± SD
A collection of molecules and their measured Cmax
Supply the numeric figure in ng/mL, leaving out any unit text.

[
  {
    "molecule": "O=C(c1csc(-c2cn[nH]c2)c1)N1C2CCC1CC(O)(c1cnccn1)C2 (stereo not drawn)",
    "reported.property": "Cmax",
    "test.result": 589
  },
  {
    "molecule": "O=C(c1csc(-c2cn[nH]c2)c1)N1C2CCC1CC(O)(c1ncccn1)C2 (stereo not drawn)",
    "reported.property": "Cmax",
    "test.result": 1540
  }
]

Note: attention shifts to another entry.
Look up Cmax for this molecule: O=C(c1csc(-c2cn[nH]c2)c1)N1C2CCC1CC(O)(c1ccccc1)C2 (stereo not drawn)
419
